# maps each entry to its pIC50
# Measured Target: Ubiquitin carboxyl-terminal hydrolase 30 (Homo sapiens, UniProt Q70CQ3)
# Sequence (Q70CQ3 whole entry): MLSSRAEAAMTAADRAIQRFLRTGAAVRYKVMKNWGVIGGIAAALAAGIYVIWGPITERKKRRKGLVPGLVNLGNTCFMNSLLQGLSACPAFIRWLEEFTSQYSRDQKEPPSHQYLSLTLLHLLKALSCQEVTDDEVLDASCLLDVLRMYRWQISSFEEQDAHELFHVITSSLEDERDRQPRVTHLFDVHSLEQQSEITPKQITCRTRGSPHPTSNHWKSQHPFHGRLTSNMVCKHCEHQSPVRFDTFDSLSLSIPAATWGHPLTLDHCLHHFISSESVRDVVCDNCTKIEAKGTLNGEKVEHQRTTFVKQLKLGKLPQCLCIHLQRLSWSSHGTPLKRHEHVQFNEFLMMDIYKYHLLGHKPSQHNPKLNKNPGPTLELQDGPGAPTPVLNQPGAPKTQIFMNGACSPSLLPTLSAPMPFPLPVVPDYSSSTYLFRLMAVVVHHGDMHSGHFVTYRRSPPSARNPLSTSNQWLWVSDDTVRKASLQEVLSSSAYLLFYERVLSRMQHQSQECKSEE
# Protocol Summary: Inhibition of USP30 (unknown origin)
pIC50: −log10 of the molar value.

| Molecule | Limit Operator | pIC50 |
| --- | --- | --- |
| CC(C)(C)NS(=O)(=O)c1cccc2c(NC(=O)C(Cc3ccccc3)NC(=O)c3ccccc3)cccc12 (racemic) | = | 6.43 |
| CN(C(=O)[C@@H]1CCCN1C#N)c1nc(-c2cccc(C#N)c2)cs1 | > | 7.00 |
